Listed molecules paired with reported mass density
Details: 353.15 K; 7500 kPa; Liquid

Molecule	mass density [kg/m3]
CCCCCCCCn1cc[n+](C)c1.O=S(=O)([N-]S(=O)(=O)C(F)(F)F)C(F)(F)F	1275
CCn1cc[n+](C)c1.F[B-](F)(F)F [1-ethyl-3-methylimidazolium tetrafluoroborate]	1261
CCn1cc[n+](C)c1.O=S(=O)([N-]S(=O)(=O)C(F)(F)F)C(F)(F)F	1468
CCCCCCCn1cc[n+](C)c1.O=S(=O)([N-]S(=O)(=O)C(F)(F)F)C(F)(F)F	1301

====

Settings: 303.15 K; 5000 kPa; Liquid
Listed compounds paired with reported mass density

Compound	mass density / kg/m3
CCCCCCCn1cc[n+](C)c1.O=S(=O)([N-]S(=O)(=O)C(F)(F)F)C(F)(F)F	1346
CCn1cc[n+](C)c1.O=S(=O)([N-]S(=O)(=O)C(F)(F)F)C(F)(F)F	1518
CCCCCCCCn1cc[n+](C)c1.O=S(=O)([N-]S(=O)(=O)C(F)(F)F)C(F)(F)F	1319
CCn1cc[n+](C)c1.F[B-](F)(F)F [1-ethyl-3-methylimidazolium tetrafluoroborate]	1298

====

Conditions: 393.15 K; 1000 kPa; Liquid

Compound	Unit text	mass density
CCn1cc[n+](C)c1.F[B-](F)(F)F [1-ethyl-3-methylimidazolium tetrafluoroborate]	kg/m3	1230
CCn1cc[n+](C)c1.O=S(=O)([N-]S(=O)(=O)C(F)(F)F)C(F)(F)F	kg/m3	1424
CCCCCCCn1cc[n+](C)c1.O=S(=O)([N-]S(=O)(=O)C(F)(F)F)C(F)(F)F	kg/m3	1262
CCCCCCCCn1cc[n+](C)c1.O=S(=O)([N-]S(=O)(=O)C(F)(F)F)C(F)(F)F	kg/m3	1237

====

Conditions: 333.15 K; 100 kPa; Liquid
Listed compounds paired with reported mass density
Measured attribute: mass density (kg/m3)

Compound	Value reported
CCn1cc[n+](C)c1.O=S(=O)([N-]S(=O)(=O)C(F)(F)F)C(F)(F)F	1482
CCCCCCCCn1cc[n+](C)c1.O=S(=O)([N-]S(=O)(=O)C(F)(F)F)C(F)(F)F	1286
CCCCCCCn1cc[n+](C)c1.O=S(=O)([N-]S(=O)(=O)C(F)(F)F)C(F)(F)F	1313
CCn1cc[n+](C)c1.F[B-](F)(F)F [1-ethyl-3-methylimidazolium tetrafluoroborate]	1272

====

Listed molecules paired with reported mass density
Details: 303.15 K; 30000 kPa; Liquid

Molecule	mass density (kg/m3)
CCn1cc[n+](C)c1.O=S(=O)([N-]S(=O)(=O)C(F)(F)F)C(F)(F)F	1536
CCn1cc[n+](C)c1.F[B-](F)(F)F [1-ethyl-3-methylimidazolium tetrafluoroborate]	1309
CCCCCCCn1cc[n+](C)c1.O=S(=O)([N-]S(=O)(=O)C(F)(F)F)C(F)(F)F	1364
CCCCCCCCn1cc[n+](C)c1.O=S(=O)([N-]S(=O)(=O)C(F)(F)F)C(F)(F)F	1337

====

Conditions: 343.15 K; 5000 kPa; Liquid
Numbers after ± are expanded uncertainties.

Compound	mass density
CCn1cc[n+](C)c1.O=S(=O)([N-]S(=O)(=O)C(F)(F)F)C(F)(F)F	1476 ± 4 kg/m3
CCCCCCCn1cc[n+](C)c1.O=S(=O)([N-]S(=O)(=O)C(F)(F)F)C(F)(F)F	1308 ± 3 kg/m3
CCn1cc[n+](C)c1.F[B-](F)(F)F [1-ethyl-3-methylimidazolium tetrafluoroborate]	1267 ± 3 kg/m3
CCCCCCCCn1cc[n+](C)c1.O=S(=O)([N-]S(=O)(=O)C(F)(F)F)C(F)(F)F	1282 ± 3 kg/m3
